target: MCR-4 (Homo sapiens); construct: expressed in transfected cells; host or cells: HEK 293; test: Melanocortin receptor binding assay, competition with 125I-HP 467, HEK 293 cells expressing hMCR-4; conditions: competition with 125I-HP 467, HEK 293 cells expressing MCR-4; read-out: MC-4 IC50
Sequence (P32245 whole entry): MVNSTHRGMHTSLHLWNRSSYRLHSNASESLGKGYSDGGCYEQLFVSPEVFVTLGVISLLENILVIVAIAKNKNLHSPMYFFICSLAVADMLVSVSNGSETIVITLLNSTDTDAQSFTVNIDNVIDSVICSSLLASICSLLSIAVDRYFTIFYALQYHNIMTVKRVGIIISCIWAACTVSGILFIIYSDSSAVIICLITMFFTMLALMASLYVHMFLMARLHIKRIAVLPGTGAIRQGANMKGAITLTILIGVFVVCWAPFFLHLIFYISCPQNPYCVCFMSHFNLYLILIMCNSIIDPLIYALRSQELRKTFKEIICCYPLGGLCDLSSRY
Property Name: IC50 (nM)

[1] CCCCNc1ccc(C2C(CNCCc3ccccc3)c3ccccc3CN2CCCCC(CN)NCCc2ccc3ccccc3c2)cc1 (centres unmarked) [TRG 2411-83]
[2] NCC(CCCCN1Cc2ccccc2C(CNC2CCCCC2)C1c1ccc(-c2ccccc2)cc1)NCc1ccccc1 (centres unmarked) [TRG 2411-22]
Between 1 and 2 , which one shows the smaller IC50 number? Answer by stating the label of the chosen item.
1
(1: 1060 nM, 2: 1730 nM)

---

target: MCR-1 (Homo sapiens, UniProt Q01726); construct: expressed in transfected cells; host or cells: HEK 293; assay: Melanocortin receptor binding assay, competition with 125I-HP 467, HEK 293 cells expressing hMCR-1; settings: TRG 2405 section; inhibition of binding of 125I-HP 467, HEK 293 cells expressing MCR-1; read-out: MC-1 IC50
Sequence (Q01726 whole entry): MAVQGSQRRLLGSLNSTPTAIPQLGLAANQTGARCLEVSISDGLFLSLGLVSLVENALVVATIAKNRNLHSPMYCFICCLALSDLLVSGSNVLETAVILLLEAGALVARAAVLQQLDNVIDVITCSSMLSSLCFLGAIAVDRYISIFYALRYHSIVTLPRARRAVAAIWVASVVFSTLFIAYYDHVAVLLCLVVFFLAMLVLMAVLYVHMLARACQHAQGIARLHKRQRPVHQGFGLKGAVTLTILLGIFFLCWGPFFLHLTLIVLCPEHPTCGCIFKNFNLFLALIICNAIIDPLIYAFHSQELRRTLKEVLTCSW
Property Name: IC50 (µM)

INSERT INTO results (molecule, endpoint_unit, quantitative_readout) VALUES
  ('CNC(CN)CN1Cc2ccccc2C(CNC2CCCCC2)C1c1cccn1C (mixture of isomers) [TRG 2405-94]', 'µM', 2.11);

[P] Cn1cccc1C1C(CNC2CCCCC2)c2ccccc2CN1CCN (stereo not shown) [TRG 2405-4]
[Q] CNC(CN)CN1Cc2ccccc2C(CNC2CCCCC2)C1c1ccc(F)c(Br)c1 (stereo not shown) [TRG 2405-126]
Between P and Q , which one shows the larger IC50 value? Your answer should be the label attached to the chosen record.
Q

---

molecular target: MCR-1 (Homo sapiens, UniProt Q01726); construct: expressed in transfected cells; host or cells: HEK 293; test: Melanocortin receptor binding assay, competition with 125I-HP 467, HEK 293 cells expressing hMCR-1; conditions: TRG 2406 and TRG 2407 libraries; inhibition of binding of 125I-HP 467; read-out: MC-1 IC50
pIC50: −log10 of the molar value.
Property Name: pIC50

The following compounds have reported results that may help.
INSERT INTO results (compound, quantitative_readout) VALUES
  ('CNC(CN)CN1Cc2ccccc2C(CNCc2ccccc2O)C1c1cccc(Oc2ccccc2)c1 (centres unmarked)', 5.44),
  ('CNC(CN)CCCCN1Cc2ccccc2C(CNC(C)C)C1c1ccc(Cl)cc1Cl (centres unmarked)', 6.04);

[I] CNC(CN)CCCCN1Cc2ccccc2C(CNc2cccc(Cl)c2)C1c1ccc(Cl)cc1Cl (centres unmarked)
[II] CNC(CN)CCCCN1Cc2ccccc2C(CNCCCc2ccccc2)C1c1ccc(Cl)cc1Cl (centres unmarked)
[III] CCOc1cccc(NCC2c3ccccc3CN(CCCCC(CN)NC)C2c2ccc(Cl)cc2Cl)c1 (centres unmarked)
List the 3 entries from lowest pIC50 to highest pIC50 value. Reply format: the labels, ordered as requested.
I, III, II

---

target: MCR-1 (Homo sapiens); construct: expressed in transfected cells; host or cells: HEK 293; assay: Melanocortin receptor binding assay, competition with 125I-HP 467, HEK 293 cells expressing hMCR-1; settings: inhibition of binding of 125I-HP 467, HEK 293 cells expressing MCR-1; TRG 2414 library; read-out: MC-1 IC50
Property Name: IC50 (µM)

Below, 3 molecules whose answers are already recorded.
INSERT INTO assay_data (molecule, endpoint_unit, quantitative_readout) VALUES
  ('COc1cccc(CNCC2c3ccccc3CN(CCCCC(CN)NCc3ccccc3)C2c2ccc(Cl)cc2Cl)c1 (centres unmarked) [TRG 2414-19]', 'µM', 3.27),
  ('COc1ccc(CNCC2c3ccccc3CN(CCCCC(CN)NCCc3ccccc3)C2c2cccc(Oc3ccccc3)c2)cc1 (centres unmarked) [TRG 2414-102]', 'µM', 12.2),
  ('CCCOc1ccc(C2C(CNCCc3ccccc3OC)c3ccccc3CN2CCCCC(N)CN)cc1 (centres unmarked) [TRG 2414-169]', 'µM', 0.518);

[A] NCC(N)CCCCN1Cc2ccccc2C(CNC2CCCCC2)C1c1cccc(Oc2ccccc2)c1 (centres unmarked) [TRG 2414-117]
[B] NC[C@H](CCCCN1Cc2ccccc2C(CNCCc2cccc(Cl)c2)C1c1ccc(Cl)cc1Cl)NCc1ccccc1 (some centres unmarked) [TRG 2414-15]
[C] CCCOc1ccc(C2C(CNCc3ccc(OC)cc3)c3ccccc3CN2CCCCC(N)CN)cc1 (centres unmarked) [TRG 2414-181]
Ascending by IC50, please. Quick reminder: the answer is the labels in the order asked.
C, A, B
